- Measured target: TrkB (Homo sapiens)
- Sequence (Q16620 32-822): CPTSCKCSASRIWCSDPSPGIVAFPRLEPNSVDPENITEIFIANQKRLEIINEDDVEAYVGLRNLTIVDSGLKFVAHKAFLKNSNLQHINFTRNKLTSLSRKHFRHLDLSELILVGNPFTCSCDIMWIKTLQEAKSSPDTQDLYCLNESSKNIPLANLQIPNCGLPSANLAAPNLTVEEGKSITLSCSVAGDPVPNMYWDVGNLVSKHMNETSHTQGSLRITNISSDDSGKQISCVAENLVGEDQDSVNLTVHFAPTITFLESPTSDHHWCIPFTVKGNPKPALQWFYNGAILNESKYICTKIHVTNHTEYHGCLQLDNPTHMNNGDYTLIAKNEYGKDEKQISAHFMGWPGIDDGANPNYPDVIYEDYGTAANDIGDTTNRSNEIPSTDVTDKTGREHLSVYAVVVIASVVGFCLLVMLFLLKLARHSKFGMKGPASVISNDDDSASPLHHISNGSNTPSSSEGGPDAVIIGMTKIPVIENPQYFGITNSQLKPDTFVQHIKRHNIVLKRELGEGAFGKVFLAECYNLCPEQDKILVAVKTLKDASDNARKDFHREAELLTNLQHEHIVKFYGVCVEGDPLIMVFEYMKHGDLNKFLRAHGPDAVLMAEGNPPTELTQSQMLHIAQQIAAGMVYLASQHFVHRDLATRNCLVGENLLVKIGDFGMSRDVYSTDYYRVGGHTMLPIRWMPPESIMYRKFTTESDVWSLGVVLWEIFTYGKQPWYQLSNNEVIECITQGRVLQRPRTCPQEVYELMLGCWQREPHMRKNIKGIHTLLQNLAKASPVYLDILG
- Protocol: Enzyme Fragment Complementation cell-based assay, TrkB
- Assay setup: U2OS-cells over-expressing TrkB; ligand 10 ng/mL; 3 hours incubation
pEC50: −log10 of the molar value.
Label TRUE when pEC50 >= 6; otherwise FALSE.

- Chemical string: "O=c1[nH]c(=O)n(-c2ccc(N3CCOCC3)cc2)c(=O)n1-c1ccc(Oc2ccccc2)cc1"
  Group label: "FALSE"
- Chemical string: "COCCOc1cc(-n2c(=O)[nH]c(=O)n(-c3ccccc3)c2=O)ccc1Oc1ccccc1"
  Group label: "TRUE"
- Chemical string: "Cn1c(=O)[nH]c(=O)n(-c2ccc(Oc3ccccc3)c(OC3CCCC3)c2)c1=O"
  Group label: "TRUE"
- Chemical string: "Cc1cc(-n2c(=O)[nH]c(=O)n(-c3ccccc3)c2=O)ccc1Oc1ccccc1"
  Group label: "TRUE"
- Chemical string: "Cc1cc(Oc2ccccc2)ccc1-n1c(=O)[nH]c(=O)n(-c2ccccc2)c1=O"
  Group label: "TRUE"
